Target: B-Raf kinase (Homo sapiens)
Construct: GST (N); purchased Sigma
Sequence (P15056 416-766): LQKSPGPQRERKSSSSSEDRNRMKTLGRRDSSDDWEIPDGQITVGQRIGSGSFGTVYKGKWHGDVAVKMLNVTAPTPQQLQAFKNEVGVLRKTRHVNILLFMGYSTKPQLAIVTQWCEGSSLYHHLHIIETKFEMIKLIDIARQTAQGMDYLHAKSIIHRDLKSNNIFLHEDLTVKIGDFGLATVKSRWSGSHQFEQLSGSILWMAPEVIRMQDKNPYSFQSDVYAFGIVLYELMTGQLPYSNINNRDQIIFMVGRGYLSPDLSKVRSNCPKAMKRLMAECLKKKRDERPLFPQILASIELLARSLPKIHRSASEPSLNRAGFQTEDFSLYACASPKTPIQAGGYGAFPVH
Assay: Biochemical Assay for B-Raf (coupled pyruvate kinase/lactate dehydrogenase assay)
Settings: Table 1, inhibition of biochemical activity; read-out: BRAF
reported.endpoint: IC50

Past entries and their recorded results:
1) CNC(=O)c1cc(-c2cncc(-c3cc(NC(=O)Nc4ccc(C(F)(F)F)nc4)ccc3C)c2)ncn1
< 100 nM
2) CC(=O)Nc1cc(-c2cc(-c3cc(NC(=O)Nc4ccc(C(F)(F)F)nc4)ccc3C)ccn2)ccn1
< 100 nM
3) CC(=O)Nc1cc(-c2cncc(-c3cc(NC(=O)Nc4ccc(C(F)(F)F)nc4)ccc3C)n2)ccn1
< 100 nM

// next entry
Query: Recorded IC50 of Cc1ccc(NC(=O)Nc2ccc(C(F)(F)F)nc2)cc1-c1cc(OCCN(C)C)nc(N2CCOCC2)c1 , please.
Result: 100 to 500 nM

###

Target: C-Raf kinase (Homo sapiens, UniProt P04049, Y340D/Y341D)
Construct: C-Raf residues 306-end; Y340D, Y341D with N-; GST (N); purchased Eurofins
Sequence (P04049 307-648 Y340D/Y341D): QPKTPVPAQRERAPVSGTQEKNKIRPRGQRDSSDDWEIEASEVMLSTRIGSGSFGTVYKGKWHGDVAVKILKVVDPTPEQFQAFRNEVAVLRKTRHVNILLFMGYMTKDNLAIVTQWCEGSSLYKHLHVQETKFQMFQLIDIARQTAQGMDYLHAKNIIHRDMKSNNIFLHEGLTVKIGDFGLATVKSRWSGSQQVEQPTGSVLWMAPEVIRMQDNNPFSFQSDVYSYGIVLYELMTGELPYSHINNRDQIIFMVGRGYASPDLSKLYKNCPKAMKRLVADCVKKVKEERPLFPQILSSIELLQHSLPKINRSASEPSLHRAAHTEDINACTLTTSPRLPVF
Assay: Biochemical Assay for C-Raf (coupled pyruvate kinase/lactate dehydrogenase assay)
Settings: Table 3; read-out: CRAF IC50
pIC50: −log10 of the molar value.
reported.endpoint: pIC50

Past entries and their recorded results:
1. CC(=O)Nc1cc(-c2cc(-c3cc(NC(=O)Nc4ccc(C(F)(F)F)nc4)ccc3C)cn(C)c2=O)ccn1 [Example 9]
> 7.00
2. Cc1ccc(NC(=O)Nc2ccc(C(F)(F)F)nc2)cc1-c1ccnc(N2CCOCC2)c1 [Example 36]
6.30 to 7.00
3. CNc1cc(-c2cc(-c3cc(NC(=O)Nc4ccc(C(F)(F)F)nc4)ccc3C)cc(OCCO)n2)ccn1 [Example 17]
6.30 to 7.00
4. CNC(=O)c1cc(-c2cc(-c3cc(NC(=O)Nc4ccc(C(F)(F)F)nc4)ccc3C)ccn2)ccn1 [Example 20]
> 7.00
5. CC(=O)Nc1cc(-c2cc(-c3cc(NC(=O)Nc4ccc(C(F)(F)F)nc4)ccc3C)ccn2)ccn1 [Example 4]
> 7.00

Query: Recorded pIC50 of Cc1ccc(NC(=O)Nc2cnc(C(F)(F)F)nc2)cc1-c1cc(OCCO)nc(N2CCOCC2)c1 [Example 24] , please.
Result: 6.30 to 7.00

Query: Then CNc1cc(-c2cc(-c3cc(NC(=O)Nc4ccc(C(F)(F)F)nc4)ccc3C)ccn2)ccn1 [Example 19] ?
Result: > 7.00

Query: Then Cc1ccc(NC(=O)Nc2ccc(C(F)(F)F)nc2)cc1-c1cc(N2CCOCC2)nc(N2CCC(O)CC2)n1 [Example 34] ?
Result: 6.30 to 7.00

Query: Then Cc1ccc(NC(=O)Nc2ccc(C(F)(F)F)nc2)cc1-c1ccnc(-c2ccnc(NC(=O)CN(C)C)c2)c1 [Example 18] ?
Result: > 7.00

Query: Then Cc1ccc(NC(=O)Nc2ccc(C(F)(F)F)nc2)cc1-c1cc(OC[C@H](C)O)nc(N2CCOCC2)c1 [Example 39] ?
Result: > 7.00

Query: Then Cc1ccc(NC(=O)Nc2ccc(C(F)(F)F)nc2)cc1-c1cc(OC[C@@H](C)O)nc(N2CCOCC2)c1 [Example 40] ?
Result: > 7.00

###

Here the recorded IC50 is given for each entry.
Test system: HCT-116 cells
Assay: HCT-116 Cell Proliferation Assay
Type: cell-based
Settings: Homo sapiens; Table 2, inhibition of cell proliferation; read-out: HCT-116

Past entries and their recorded results:
1) Cc1ccc(NC(=O)Nc2ccc(C(F)(F)F)nc2)cc1-c1ccnc(N2CCOCC2)c1
< 100 nM
2) CNc1cc(-c2cc(-c3cc(NC(=O)Nc4ccc(C(F)(F)F)nc4)ccc3C)cc(OCCO)n2)ccn1
< 100 nM
3) Cc1ccc(NC(=O)Nc2cc(C(F)(F)F)cnn2)cc1-c1ccnc(-c2ccnc(NC(=O)C3CC3)c2)c1
500 to 1000 nM

// next entry
Query: Recorded IC50 of CC(=O)Nc1cc(-c2cc(-c3cc(NC(=O)Nc4ccc(C(F)(F)F)nc4)ccc3C)nn(C)c2=O)ccn1 , please.
Result: 1000 to 10000 nM
